Origin of values: ChEMBL document CHEMBL4311948

Parameter pIC50: see the listing below.
Tested on: ACHN
testProtocol: Cytotoxicity against human ACHN cells assessed as reduction in cell viability measured after 72 hrs by CCK8 assay
Assay type: functional, cell-based
Note on units: pIC50 is unitless, being -log10 of a concentration expressed in mol/L.

Below are worked cases with known answers.
1) C/C=C(\C)[C@H](O)[C@H](C)/C=C(C)/C=C(\C)C/C(C)=C/Cc1nc(OC)c(OC)c(O)c1C    4.85
2) COc1nc(C/C=C(\C)C/C=C/C=C/[C@@H](C)[C@@H](O[C@@H]2O[C@H](CO)[C@@H](O)[C@H](O)[C@H]2O)/C(C)=C/CO)c(C)c(O)c1OC    5.60
3) COc1nc(C/C=C(\C)C[C@H](O)[C@H](OC)/C(C)=C/[C@@H](C)[C@@H](O[C@@H]2O[C@H](CO)[C@@H](O)[C@H](O)[C@H]2O)/C(C)=C/CO)c(C)c(O)c1OC    4.22
4) C/C=C(\C)[C@H](O)[C@H](C)/C=C(C)/C=C/C/C(C)=C/Cc1nc(OC)c(OC)c(O)c1C    6.40
5) COc1nc(C/C=C(\C)C/C(C)=C/C(C)=C/[C@@H](C)[C@@H](O)/C(C)=C/[C@](C)(O)[C@@H](C)O)c(C)c(O)c1OC    5.62

Moving on to another molecule below.
# query: pIC50 of entry COc1nc(C/C=C(\C)C/C=C/C(C)=C/[C@@H](C)[C@@H](O[C@@H]2O[C@H](CO)[C@@H](O)[C@H](O)[C@H]2O)/C(C)=C/CO)c(C)c(O)c1OC 5.14
